TARGET: hAR (human androgen receptor) (Homo sapiens)
Construct: made in house; host or cells: baculovirus/Sf9 insect cells (crude extract)
Sequence (P10275 whole entry): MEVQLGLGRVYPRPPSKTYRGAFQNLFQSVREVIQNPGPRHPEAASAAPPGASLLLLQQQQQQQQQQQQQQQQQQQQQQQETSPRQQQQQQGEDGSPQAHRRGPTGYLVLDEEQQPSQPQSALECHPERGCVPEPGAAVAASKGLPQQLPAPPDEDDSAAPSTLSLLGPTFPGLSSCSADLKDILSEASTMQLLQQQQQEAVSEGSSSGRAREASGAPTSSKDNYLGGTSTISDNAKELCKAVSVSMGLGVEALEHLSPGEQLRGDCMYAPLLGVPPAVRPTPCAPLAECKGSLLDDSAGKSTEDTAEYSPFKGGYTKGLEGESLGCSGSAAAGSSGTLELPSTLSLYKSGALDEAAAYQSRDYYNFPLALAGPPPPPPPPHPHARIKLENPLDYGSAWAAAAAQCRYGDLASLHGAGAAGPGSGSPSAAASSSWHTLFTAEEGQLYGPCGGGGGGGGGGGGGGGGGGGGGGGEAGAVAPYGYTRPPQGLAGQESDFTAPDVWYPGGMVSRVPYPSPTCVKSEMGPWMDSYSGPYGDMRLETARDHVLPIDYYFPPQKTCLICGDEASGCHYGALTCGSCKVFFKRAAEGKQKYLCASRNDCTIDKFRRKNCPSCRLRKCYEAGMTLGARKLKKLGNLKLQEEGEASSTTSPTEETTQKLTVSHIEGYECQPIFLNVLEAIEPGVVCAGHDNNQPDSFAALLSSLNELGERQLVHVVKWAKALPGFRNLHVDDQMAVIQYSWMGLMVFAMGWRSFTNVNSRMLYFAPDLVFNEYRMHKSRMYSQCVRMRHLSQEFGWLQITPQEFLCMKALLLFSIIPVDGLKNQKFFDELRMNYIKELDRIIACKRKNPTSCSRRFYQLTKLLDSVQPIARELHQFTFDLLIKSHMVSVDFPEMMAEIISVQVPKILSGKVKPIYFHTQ
TEST_METHOD_NOTES: Competitive hAR binding assay with 3H-DHT tracer
Reported IC50 by item:
METRIC_NAME: IC50 (µM)

1) Cc1cccc(C)c1Oc1ccc(C#N)cc1Cl [Example 16] | 0.016
2) CCc1ccccc1Oc1ccc(C#N)c(Cl)c1 [Example 35] | 0.02
3) CC(C)Oc1ccccc1Oc1ccc(C#N)c(Cl)c1 [Example 63] | 0.07
4) Cc1cccc(Oc2ccc(C#N)c(Cl)c2)c1 [Example 41, 2-Chloro-4-m-tolyloxy-benzonitrile] | 0.086
5) N#Cc1ccc(Oc2c(F)cccc2F)c(Cl)c1 [Example 124] | 0.045
